method-description: NCI Yeast Anticancer Drug Screen. Data for the cln2 rad14 strain (AID 165);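 note: 0% = growth equal to vehicle treated cultures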
condition-notes: S. cerevisiae cln2 rad14 strain, at 50.0 µM, hits give high values
Procedure: Growth inhibition of yeast strains with defined genetic alterations is measured as a screen for potential anti-cancer activity. Selected strains with alterations in DNA damage repair or cell cycle control were exposed to compounds and growth inhibition was measured relative to vehicle treated controls. The strain used in this assay is cln2 rad14
The panel holds about 79,000 compounds, 15% with a hit somewhere; the sample as a whole holds those more often.
Measured growth inhibition of individual entries
Only the number, expressed in %, is required.

Here's what some known entries look like.
CC1C(NNC(N)=O)Oc2cc3c(cc2C1c1ccccc1O)OCO3 (configuration not stated) ... 10.2
COc1ccc(-c2cc(-c3ccccc3)n[nH]2)cc1 ... -13.9
O=c1[nH]ncc2ccc([N+](=O)[O-])cc12 ... -1.25
O=C1c2ccccc2C(=O)c2c1c([N+](=O)[O-])c1c(c2[N+](=O)[O-])OCO1 ... -0.15

In: Write down growth inhibition measured for item COc1ccc2c(c1)N1CCc3cc(OC)c(OC)cc3C1C2 (configuration not stated)
Out: 9.5

###

method-description: NCI Yeast Anticancer Drug Screen. Data for the rad50 strain (AID 155);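 note: 0% = growth of vehicle-only cultures of the same strain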
condition-notes: S. cerevisiae rad50 strain growth inhibition; at 50.0 µM; hits give high values
About 79,000 compounds went through this panel and 15% of them were active in at least one assay; those are over-represented in the sample as a whole.
# growth inhibition annotations
Unit % implied. Number only.

CC12CC1CCCC2OC(=O)c1cc([N+](=O)[O-])cc([N+](=O)[O-])c1 (stereo unspecified) ... 4.75
CCCC(CCCC(=O)O)C(=O)O (stereo unspecified) ... -4
Nc1cccc(CC(NC(=O)c2ccccc2)C(=O)O)c1 (stereo unspecified) ... -16.4
COC(=O)C(C)(NC(=O)C(CC(=O)OC(C)(C)C)NC(=O)OC(C)(C)C)c1ccccc1 (stereo unspecified) ... 41.5

In: For the molecule CN(C)c1cc2c(cc1N(C)C)-c1ccccc1C2 , report growth inhibition.
Out: 9.85

In: Provide only the value of recorded growth inhibition for O=C1c2ccc3c([nH]c4ccccc43)c2C(=O)N1c1ccccc1
Out: 19.7

###

method-description: NCI Yeast Anticancer Drug Screen. Data for the mec2-1 strain (AID 157)
condition-notes: S. cerevisiae mec2-1 strain, at 50.0 µM, hits give high values
This is part of a sample that, as a whole, favours compounds with a hit. Of some 79,000 tested, about 15% had one in any assay. Active and inactive are the calls of the source. Rule as the data show it: active = growth inhibition above about 70%; inactive = the rest.
Measured growth inhibition, listed per entry for reference.

Solved cases below.
NC(C1SCCS1)C(O)C(O)C(O)CO (stereo not given) ... -27.6% (inactive)
COC(=O)NN(C(=O)OC)C12CCCCC1N(C(=O)OC)N(C(=O)OC)c1c2ccc2cc(OC)ccc12 (stereo not given) ... -0.7% (inactive)
NNC(=O)COCC(=O)NN ... -27.2% (inactive)
CC(=O)CCc1ccc(Cl)cc1 ... -3.55% (inactive)
Cn1cnc2cc(NCCO)c([N+](=O)[O-])cc2c1=O ... 18.9% (inactive)

In: Please supply the value of reported growth inhibition for the item O=C1C(=Cc2ccc([N+](=O)[O-])cc2)C(=O)c2ccccc21
Out: 36.6% (inactive)

In: Please indicate growth inhibition recorded for CC1C=CC(C(=O)Nc2ccc(Cl)c(Cl)c2)N1C (stereo not given)
Out: 12.2% (inactive)

In: Assign growth inhibition to the following record: Cc1ccc(NC(=O)Oc2ccc(Cl)cc2Cl)cc1NC(=O)Oc1ccc(Cl)cc1Cl
Out: -1.15% (inactive)

In: Please supply the value of reported growth inhibition for the item CN(N=O)C(=O)NCc1ccc(Cl)cc1
Out: 15.8% (inactive)

In: Tell us which growth inhibition value is on record for COc1ccc(CCNC(=S)NC(=O)c2ccc(Cl)c(Cl)c2)cc1OC
Out: 47% (inactive)

In: Find the measured growth inhibition of CCCS(=O)(=O)N1CC(C)OC(C)C1 (stereo not given) and report it.
Out: -16.9% (inactive)

In: Quote growth inhibition reported for CCCCCOCC(O)CNCCNCC(O)COCCCCC (stereo not given) please.
Out: 0% (inactive)

In: Note growth inhibition for the molecule shown: CN1CCCC(NC(c2ccccc2)c2ccccc2)C1 (stereo not given)
Out: 0.45% (inactive)

In: Hello, please tell me recorded growth inhibition for this one: CC(C)C(=O)C(F)(F)F
Out: 2.45% (inactive)

In: Supply growth inhibition value. Item: NC(Cc1cc(I)c(O)c(I)c1)C(=O)O (stereo not given)
Out: -6.05% (inactive)

In: Let me know recorded growth inhibition for c1ccc2nc(N3CCCC3)c(N3CCCC3)nc2c1 , thanks.
Out: -12.6% (inactive)

In: State its growth inhibition for this molecule: CCCCC(CC)COB(OCC(CC)CCCC)OCC(CC)CCCC (stereo not given)
Out: -38.3% (inactive)

###

method-description: NCI Yeast Anticancer Drug Screen. Data for the mec2-1 strain (AID 157)
condition-notes: S. cerevisiae mec2-1 strain, at 50.0 µM, hits give high values
The panel holds about 79,000 compounds, 15% with a hit somewhere; the sample as a whole holds those more often.
Response key: criterion met means growth inhibition >= 10%; criterion not met means growth inhibition < 10%.

Cc1cccc(C)c1NC(=O)Nc1cccc(Cl)c1 ... criterion met
CCC1C(C#N)(C#N)C1(C#N)C#N ... criterion met
O=c1c(-c2ccccc2)c2oc(c1-c1ccccc1)CS(=O)(=O)CCC2 ... criterion met
O=C(CN1CCCCC1)c1ccc(CCc2ccc(C(=O)CN3CCCCC3)cc2)cc1 ... criterion met
CC(=O)C1C(=O)C(=O)N(c2ccc([N+](=O)[O-])cc2)C1=O (stereo unspecified) ... criterion not met

Consider the additional compound presented here.
In: Quick check: does CN1C(=O)CCC1(O)C1C=CC=CC1 (stereo unspecified) have growth inhibition greater than or equal to 10%?
Out: criterion not met

###

Property: growth inhibition; scope: individual compounds
method-description: NCI Yeast Anticancer Drug Screen. Data for the mlh1 rad18 strain (AID 175)
condition-notes: S. cerevisiae mlh1 rad18 strain growth inhibition; at 50.0 µM; hits give high values
Compounds without any hit were thinned out: in the full panel of roughly 79,000, 15% have a hit.
Record the value in %, omitting the unit from your answer.

CCCCCC(CCCCC)c1ccccn1 ... 4.1
CCOc1ccc(-n2c(=O)c(N=Nc3ccccc3Cl)c(O)n(-c3ccc(Br)cc3)c2=S)cc1 ... 5.8
OCCNc1ncnc2[nH]ncc12 ... 5.55

In: Look up and state reported growth inhibition for Cc1ccc(/[N+]([O-])=N/N2C(=O)c3ccccc3C2=O)cc1
Out: -2.9

In: Indicate its recorded growth inhibition; the compound in question is C/C(=N\N=C(/C)c1cccc2ccccc12)c1cccc2ccccc12
Out: -36.2

###

method-description: NCI Yeast Anticancer Drug Screen. Data for the mlh1 rad18 strain (AID 175)
condition-notes: S. cerevisiae mlh1 rad18 strain growth inhibition; at 50.0 µM; hits give high values
Description: Growth inhibition of yeast strains with defined genetic alterations is measured as a screen for potential anti-cancer activity. Selected strains with alterations in DNA damage repair or cell cycle control were exposed to compounds and growth inhibition was measured relative to vehicle treated controls. The strain used in this assay is mlh1 rad18
The panel holds about 79,000 compounds, 15% with a hit somewhere; the sample as a whole holds those more often.
Documented growth inhibition across a set of compounds
Please state the figure in %; there is no need to write the unit.

In: Recall and state the measured growth inhibition for COc1ccc(CCn2cnc3ccccc32)cc1 .
Out: -18.9

In: Supply reported growth inhibition belonging to this compound: O=c1[nH]c(Nc2cccc(CO)c2)nc2nc[nH]c12
Out: -26.4

In: For the compound COc1ccc(C(c2cc3c(cc2O)OCO3)N2CCN(C(c3cc4c(cc3O)OCO4)c3ccc(OC)cc3OC)CC2)c(OC)c1 (stereo unspecified) , give its reported growth inhibition.
Out: 3.45

In: Dear colleague, please send me the reported growth inhibition for CN(C)Cc1c(CC(O)(c2ccccc2)c2ccccc2)ccc2ccccc12 when you can.
Out: 5.6

In: State, in one line, measured growth inhibition of Fc1ccc(-c2ncc(-c3ccccc3)o2)cc1
Out: -12.9

In: Output growth inhibition of Cc1ccc(-c2c(C#N)c(-c3ccc(Cl)cc3)c(C#N)c(=O)n2NS(=O)(=O)c2ccc(C)cc2)cc1
Out: 13.2

In: Supply growth inhibition value. Item: CC(=O)OCCS(=O)(=O)c1c(Cl)c(Cl)c(Cl)c(Cl)c1Cl
Out: 97.8

In: Please list growth inhibition recorded for the compound CCc1c(N)nc(=O)[nH]c1C(=O)O
Out: -16.6

In: # return recorded growth inhibition for input OCC(O)C(OC1OC(CO)C(O)C(O)C1O)c1nn(-c2ccc(F)cc2)c2nc3cc(Cl)c(Cl)cc3cc12 (stereo unspecified)
Out: -1.55

In: Answer with the recorded growth inhibition of O=C(NCCNC(=O)c1cc(Cl)cc(Cl)c1O)c1cc(Cl)cc(Cl)c1O only.
Out: 21.8

In: Check the records and state growth inhibition for NC(=O)C1CC(O)CC(C(N)=O)O1 (stereo unspecified)
Out: -23.9

Source listed as PubChem BioAssay (NCI).
